Quick reference: pIC50 of the listed items.
- System: LPS-induced B cell proliferation of murine splenocytes
- Procedure details: LPS-induced B-cell proliferation
- Format: cell-based, mouse
- Condition summary: Mus musculus, B-cell, 48 h, read-out: LPS-induced B-cell proliferation IC50
Formally, pIC50 is defined as -log10 of the concentration c, with c in mol/L.

The examples below pair each entry with its known result.
{"Compound": "CCN(CCCC(C)Nc1ccnc2cc(Cl)ccc12)CCNC(=O)CCOCCOCCOCCOCCOCC(=O)Nc1ccc2c(c1)OC(F)(F)O2 (stereo not shown)", "pIC50": 5.84}
{"Compound": "CCN(CCCC(C)Nc1ccnc2cc(Cl)ccc12)CCNC12CC(N)(C1)C2 (stereo not shown)", "pIC50": 4.82}

Okay, next one:
Sample CCN(CCCC(C)Nc1ccnc2cc(Cl)ccc12)CCNC(=O)C(F)(F)C1CCN(C(=O)C2OC(OC)C3OC(C)(C)OC23)CC1 (stereo not shown) ; pIC50 observed: 5.52

----------
The following compounds are shown together with reported pIC50 values.
- Tested on: IL-1β
- Procedure details: LPS-induced cytokine production in RAW264.7 cell, IL-1β
- Assay type: cell-based
- Condition summary: Mus musculus, RAW264.7, 48 h, read-out: IL-1β IC50
Lab note: report pIC50 as minus log10 of the concentration in molar units, number only.

# example entries with known answers
{"Compound": "CCN(CC)CCCC(C)Nc1ccnc2cc(Cl)ccc12 (stereo not drawn) [Compound 1, chloroquine, reference compound]", "pIC50": 5.57}
{"Compound": "CCN(CCCC(C)Nc1ccnc2cc(Cl)ccc12)CCNC(=O)C(F)(F)C1CCN(CCOCCOC)CC1 (stereo not drawn)", "pIC50": 5.74}
{"Compound": "CCN(CCO)CCCC(C)Nc1ccnc2cc(Cl)ccc12 (stereo not drawn) [Compound 2, hydroxychloroquine, reference compound]", "pIC50": 5.45}
{"Compound": "CCN(CCCC(C)Nc1ccnc2cc(Cl)ccc12)CCNC(=O)C(F)(F)C1CCN(CC(O)C(F)(F)F)CC1 (stereo not drawn)", "pIC50": 6.14}
{"Compound": "CCN(CCCC(C)Nc1ccnc2cc(Cl)ccc12)CCNC(=O)C(F)(F)C1CCN(C(=O)C2OC(OC)C3OC(C)(C)OC23)CC1 (stereo not drawn)", "pIC50": 5.92}

Please turn your attention to the following entry.
The recorded pIC50 for entry CCN(CCCC(C)Nc1ccnc2cc(Cl)ccc12)CCNC(=O)CCOCCOCCOCCOCCOCC(=O)Nc1ccc2c(c1)OC(F)(F)O2 (stereo not drawn) equals 5.42

----------
- Procedure details: Cytotoxicity in RAW264.7 cell
- Assay type: cell-based
- Condition summary: mouse, RAW264.7 macrophage cells
Recorded metric: CC50 at 48 h (µM)
Numeric answer only, unit µM assumed.

{"Compound": "CCN(CCCC(C)Nc1ccnc2cc(Cl)ccc12)CCNC(=O)C(F)(F)C1CCN(CCOCCOC)CC1 (centres unmarked)", "CC50 at 48 h [µM]": 125}

Continue with the compound presented below.
Per the record, CCN(CCO)CCCC(C)Nc1ccnc2cc(Cl)ccc12 (centres unmarked) [Compound 2, hydroxychloroquine, reference compound] has CC50 at 48 h of 25.3

----------
- Procedure details: in vitro
- Condition summary: human
Recorded metric: CC50 (µM)
API: value field is a number in µM; no unit string.

{"Molecule": "CCN(CCCC(C)Nc1ccnc2cc(Cl)ccc12)CCNC(=O)C(F)(F)C1CCNCC1 (stereo not drawn)", "Recorded metric": "CC50", "Test value": 27.3}
{"Molecule": "CCN(CC)CCCC(C)Nc1ccnc2cc(Cl)ccc12 (stereo not drawn) [Compound 1, chloroquine, reference compound]", "Recorded metric": "CC50", "Test value": 26.4}
{"Molecule": "CCN(CCCC(C)Nc1ccnc2cc(Cl)ccc12)CCNC12CC(N)(C1)C2 (stereo not drawn)", "Recorded metric": "CC50", "Test value": 24.9}

Value of measured CC50 for the entry CCN(CCCC(C)Nc1ccnc2cc(Cl)ccc12)CCNC(=O)CCOCCOCCOCCOCCOCC(=O)Nc1ccc2c(c1)OC(F)(F)O2 (stereo not drawn) : 21.7
